Origin of values: the Kinase Knowledgebase extract (Sharma et al. 2016)

Entries and their IC50
TARGET_SYSTEM: EGFR (Human), P00533 [Inhibition of EGFR Dependent Proliferation of HCC827(.Delta.746-750) cells]
Sequence (P00533 whole entry, looked up, stated change not applied): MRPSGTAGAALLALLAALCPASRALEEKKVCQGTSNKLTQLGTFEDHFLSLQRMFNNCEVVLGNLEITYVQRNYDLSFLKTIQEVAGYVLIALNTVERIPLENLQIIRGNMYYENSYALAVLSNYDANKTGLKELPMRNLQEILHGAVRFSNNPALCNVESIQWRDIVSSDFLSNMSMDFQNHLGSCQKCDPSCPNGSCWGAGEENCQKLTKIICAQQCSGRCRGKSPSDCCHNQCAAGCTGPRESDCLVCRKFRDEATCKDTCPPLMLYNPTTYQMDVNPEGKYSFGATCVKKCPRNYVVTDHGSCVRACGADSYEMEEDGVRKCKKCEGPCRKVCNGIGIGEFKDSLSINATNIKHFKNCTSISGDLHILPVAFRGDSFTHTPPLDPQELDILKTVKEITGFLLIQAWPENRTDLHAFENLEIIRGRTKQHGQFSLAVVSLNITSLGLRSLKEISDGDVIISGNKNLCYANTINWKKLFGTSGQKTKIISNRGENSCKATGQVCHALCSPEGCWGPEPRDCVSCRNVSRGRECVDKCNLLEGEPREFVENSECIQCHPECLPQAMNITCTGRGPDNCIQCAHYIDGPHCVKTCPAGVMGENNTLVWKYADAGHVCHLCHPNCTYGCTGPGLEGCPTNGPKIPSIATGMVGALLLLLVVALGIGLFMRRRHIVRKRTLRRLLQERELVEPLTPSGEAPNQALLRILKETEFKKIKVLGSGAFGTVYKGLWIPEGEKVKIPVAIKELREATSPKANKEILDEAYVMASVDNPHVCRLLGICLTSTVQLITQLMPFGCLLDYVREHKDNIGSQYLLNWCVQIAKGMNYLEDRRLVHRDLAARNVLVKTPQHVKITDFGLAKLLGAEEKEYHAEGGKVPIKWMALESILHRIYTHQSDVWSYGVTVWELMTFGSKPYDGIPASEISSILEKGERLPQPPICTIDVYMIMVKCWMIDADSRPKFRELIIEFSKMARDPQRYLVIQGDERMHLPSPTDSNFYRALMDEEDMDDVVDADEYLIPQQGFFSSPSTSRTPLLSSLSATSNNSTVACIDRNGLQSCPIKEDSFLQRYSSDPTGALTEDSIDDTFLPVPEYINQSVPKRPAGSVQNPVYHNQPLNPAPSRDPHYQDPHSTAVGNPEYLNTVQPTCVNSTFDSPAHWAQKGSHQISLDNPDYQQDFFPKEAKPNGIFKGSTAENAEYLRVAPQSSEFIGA
ASSAY_OVERVIEW: Cell-Based Assay

1. C=CC(=O)Nc1cccc(-n2c(=O)cc(C)c3cnc(Nc4ccc(N5CCN(C(C)=O)CC5)cc4Cl)nc32)c1 : 236 nM
2. C/C=C/C(=O)Nc1cccc(-n2c(=O)cc(C)c3cnc(Nc4ccc(OCCN(C)C)cc4OC)nc32)c1 : 1480 nM
3. C=CC(=O)Nc1cccc(-n2c(=O)cc(C)c3cnc(Nc4ccc(N(C)CCN5CCCC5=O)cc4OC)nc32)c1 : 401 nM
4. C=CC(=O)Nc1cccc(-n2c(=O)ccc3cnc(Nc4cn(C)nc4C)nc32)c1 : 2 nM
5. C=CC(=O)Nc1cccc(-n2c(=O)cc(C)c3cnc(Nc4ccc(OCCN(C)C)cc4Cl)nc32)c1 : 46 nM
6. C=CC(=O)Nc1cccc(-n2c(=O)cc(C)c3cnc(Nc4ccc(N(C)CCN(C)C)cc4OC)nc32)c1 : 22 nM
7. C=CC(=O)Nc1cccc(-n2c(=O)cc(C)c3cnc(Nc4cnn(CCN(C)C)c4)nc32)c1 : 305 nM
8. C=CC(=O)Nc1cccc(-n2c(=O)cc(C)c3cnc(Nc4ccc(OCCCN(C)C)cc4)nc32)c1 : 159 nM

Turning now to a further record.
QUERY: Entry `C=CC(=O)Nc1cccc(-n2c(=O)cc(C)c3cnc(Nc4cn(C)nc4C)nc32)c1` : reported IC50 = ?
RESULT: 22 nM

###

The entries below come with measured pIC50 values attached.
TARGET_SYSTEM: EGFR (Human), P00533 [Inhibition of EGFR Dependent Proliferation of HCC827(.Delta.746-750) cells]
ASSAY_OVERVIEW: Cell-Based Assay
// pIC50 here means minus log10 of the molar concentration (mol/L)

QUERY: Please report the recorded pIC50 for `C=CC(=O)Nc1cccc(-n2c(=O)cc(C)c3cnc(Nc4ccc(N(C)CCN5CCCC5)cc4OC)nc32)c1` .
RESULT: 6.57

QUERY: Entry `C=CC(=O)Nc1cccc(-n2c(=O)cc(C)c3cnc(Nc4cn(C5CCN(C)CC5)nc4C)nc32)c1.C=CC(=O)Nc1cccc(-n2c(=O)cc(C)c3cnc(Nc4cnn(C5CCN(C)CC5)c4C)nc32)c1` : reported pIC50 = ?
RESULT: 5.98

QUERY: Look at this compound and give its reported pIC50. `C=CC(=O)Nc1cccc(-n2c(=O)cc(C)c3cnc(Nc4cn([C@H]5CCN(C)C5)nc4C)nc32)c1`
RESULT: 7.31

QUERY: # pIC50 lookup, item `C=CC(=O)Nc1cccc(-n2c(=O)cc(C)c3cnc(Nc4cn(C)nc4Cl)nc32)c1`
RESULT: 7.52

QUERY: Which pIC50 reading was recorded for the compound `C=CC(=O)Nc1cccc(-n2c(=O)cc(C)c3cnc(Nc4ccc(OCCN(C)C)cc4OC)nc32)c1` ?
RESULT: 7.55

QUERY: Returns the measured pIC50 for the input compound. Input: `C=CC(=O)Nc1cccc(-n2c(=O)cc(C)c3cnc(Nc4ccc(N(C)CCN(C)C)cc4OC(F)F)nc32)c1`
RESULT: 7.08

QUERY: What value of pIC50 has been reported for the following compound? `C=CC(=O)Nc1cccc(-n2c(=O)c(OC)cc3cnc(Nc4ccc(N5CCN(C)CC5)cc4OC)nc32)c1`
RESULT: 7.21

QUERY: Fill blank: measured pIC50 of the compound `C=CC(=O)Nc1cccc(-n2c(=O)cc(C)c3cnc(Nc4ccc(C5CCN(C)CC5)cc4)nc32)c1` is ____.
RESULT: 7.57

QUERY: Fill in: pIC50 of `C=CC(=O)Nc1cccc(-n2c(=O)cc(C)c3cnc(Nc4ccc(N(C)CCO)cc4OC)nc32)c1` is ___
RESULT: 6.32

QUERY: Any idea what its pIC50 is? The compound is `C=CC(=O)Nc1cccc(-n2c(=O)cc(C)c3cnc(Nc4ccc(OCCOC)cc4)nc32)c1`
RESULT: 6.60
